- measuredOn: PTHR1 (Homo sapiens)
- Sequence (Q03431 27-593): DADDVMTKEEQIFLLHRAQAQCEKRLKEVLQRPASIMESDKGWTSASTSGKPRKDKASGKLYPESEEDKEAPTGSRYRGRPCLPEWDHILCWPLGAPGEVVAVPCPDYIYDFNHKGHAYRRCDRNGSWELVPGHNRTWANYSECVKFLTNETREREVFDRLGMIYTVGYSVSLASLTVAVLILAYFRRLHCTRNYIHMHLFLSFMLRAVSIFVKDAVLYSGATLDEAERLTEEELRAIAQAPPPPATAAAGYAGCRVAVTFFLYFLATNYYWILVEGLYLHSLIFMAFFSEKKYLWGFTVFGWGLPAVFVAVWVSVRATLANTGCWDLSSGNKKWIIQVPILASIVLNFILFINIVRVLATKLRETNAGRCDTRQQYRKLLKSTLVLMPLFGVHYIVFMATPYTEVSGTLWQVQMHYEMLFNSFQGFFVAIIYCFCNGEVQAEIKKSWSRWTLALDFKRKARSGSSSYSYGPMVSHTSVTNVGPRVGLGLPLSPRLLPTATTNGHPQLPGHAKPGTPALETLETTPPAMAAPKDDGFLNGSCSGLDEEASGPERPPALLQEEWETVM
- methodNotes: cAMP accumulation assay (HTRF) in CHO-K1/Ga15/PTHR1 cells
- Type: cell-based
- Set-up: host or cells: CHO-K1 (recombinant line CHO-K1/Ga15/PTHR1)
- details: cAMP accumulation; replicate plates; read-out: −log10EC50 (converted)
Where no end group is shown, it is not given here.
readoutType: EC50 (µM)
Your answer is read as µM, so omit the unit and give the number.

Query: // returns reported EC50 for input GVSMLQIMHDLAVIRAEYELREMLLRLLEEIF [Peptide R2-4]
Result: 1.36

Query: // returns reported EC50 for input AVAEIQLMHQRAKWEIQEIGIKITLDLLQTLK [Peptide R2-41]
Result: 5.57e-05

Query: // returns reported EC50 for input AVAEIQLMHQRAKWGLELELKEKLRKILEDVY [Peptide R2-26]
Result: 0.0845

Query: // returns reported EC50 for input GVAELQLMHFRALLRAEYELREMLLRLLEEIF [Peptide R2-7]
Result: 26100

Query: // returns reported EC50 for input AVAEIQLMHQRAKWGLEIELLKLLLSLLKEYI [Peptide R2-45]
Result: 8.41e-06

Query: // returns reported EC50 for input PIPVKDIMDLRAYLRAEYELREMLLRLLEEIF [Peptide R2-19]
Result: 20.5

Query: // returns reported EC50 for input GVAEIQLMHDIPVIRAEYELREMLLRLLEEIF [Peptide R2-3]
Result: 11.8

Query: // returns reported EC50 for input AVAEIQLMHQRAKWLEELKLKDDLRKILEDVY [Peptide R2-30]
Result: 0.08

Query: // returns reported EC50 for input AVAEIQLMHQRAKWELQEIGIAITLRLLARYI [Peptide R2-43]
Result: 3.48e-05

Query: // returns reported EC50 for input GVAEIQLMVDLDIIRAEYELREMLLRLLEEIF [Peptide R2-12]
Result: 137

Query: // returns reported EC50 for input AVAEIQLMHQRAKWKLDLELAVSLRKILEDVY [Peptide R2-27]
Result: 0.0122

Query: // returns reported EC50 for input GVAMIQIMHDIAKIRAEYELREMLLRLLEEIF [Peptide R2-2]
Result: 0.187

Query: // returns reported EC50 for input AVAEIQLMHQRAKWKLELELKVKLLEILKDVY [Peptide R2-25]
Result: 0.0129

Query: // returns reported EC50 for input AVAEIQLMHQRAKWEIQEIGIKITLELLKEYI [Peptide R2-37]
Result: 0.000813

Query: // returns reported EC50 for input GIAVFTIMHLRIYLRAEYELREMLLRLLEEIF [Peptide R2-17]
Result: 448

Query: // returns reported EC50 for input AVAEIQLMHQRAKWAIQEIGIKITRELLERYL [Peptide R2-42]
Result: 0.285

Query: // returns reported EC50 for input AVAEIQLMHQRAKWDLLIELVKLLHELLKEYI [Peptide R2-40]
Result: 5.83e-06

Query: // returns reported EC50 for input AVAEIQLMHQRAKWKLELELKAFLDQILKDVL [Peptide R2-36]
Result: 0.00476

Query: // returns reported EC50 for input AVAEIQLMHQRAKWRLEIELLKKLKEILKDVY [Peptide R2-34]
Result: 0.106

Query: // returns reported EC50 for input LILVEQLMDLRAYLRAEYELREMLLRLLEEIF [Peptide R2-16]
Result: 19.6

Query: // returns reported EC50 for input SVMMIQVMHDLAKIRAEYELREMLLRLLEEIF [Peptide R2-8]
Result: 0.0319

The measured values listed here are drawn from patent US12344649B2.
